experimentalTarget: UniProtKB P01116
experimentDescription: Binding to KRAS by surface plasmon resonance (SPR), Single Cycle Kinetics
recordedConditions: SPR, Single Cycle Kinetics, 1:1 binding model; GDP-bound KRAS wild-type protein; read-out: KRAS KD
Item-by-item account of Kd
readoutLabel: Kd (nM)

>>> observedmeasurement("CCO[C@@H]1C[C@H]2C(=O)NC3(CCC3)C(=O)N(C)[C@@H](C(CC)CC)C(=O)N3CCC[C@@H]3CC(=O)N(C)[C@@H](CC)C(=O)N[C@@H]([C@@H](C)CC)C(=O)N(C)CC(=O)N(C)[C@H]3C/C=C\\CCN(C3=O)[C@@H](Cc3ccc(C(F)(F)F)cc3)C(=O)N(C)CC(=O)N[C@@H](CCc3cc(F)c(C(F)(F)F)c(F)c3)C(=O)N2C1")
0.57
>>> observedmeasurement("CCO[C@@H]1C[C@H]2C(=O)NC3(CCCC3)C(=O)N(C)[C@@H](C3CCCC3)C(=O)N(C)[C@H](C(=O)N(C)C)CC(=O)N(C)[C@@H](CC)C(=O)N[C@@H]([C@@H](C)CC)C(=O)N(C)CC(=O)N(C)[C@H]3C/C=C\\CCN(C3=O)[C@@H](Cc3ccc(C(F)(F)F)cc3)C(=O)N(C)CC(=O)N[C@@H](CCc3cc(F)c(C(F)(F)F)c(F)c3)C(=O)N2C1")
0.066
>>> observedmeasurement("CC[C@H](C)[C@@H]1NC(=O)[C@H](CC2CCC2)N(C)C(=O)C[C@@H](C(=O)N(C)C)N(C)C(=O)[C@H](C2CCCC2)N(C)C(=O)C2(CCCC2)NC(=O)[C@@H]2CCCN2C(=O)[C@H](CCc2ccc(C(F)(F)F)c(Cl)c2)NC(=O)CN(C)C(=O)[C@H](Cc2ccc(C(F)(F)F)cc2)N2C[C@H](C)CC[C@@H](C2=O)N(C)C(=O)CN(C)C1=O")
0.091

###

Item-by-item account of Kd
experimentalTarget: GDP-bound KRAS wild-type protein (Homo sapiens, UniProt P01116)
Sequence (P01116 whole entry): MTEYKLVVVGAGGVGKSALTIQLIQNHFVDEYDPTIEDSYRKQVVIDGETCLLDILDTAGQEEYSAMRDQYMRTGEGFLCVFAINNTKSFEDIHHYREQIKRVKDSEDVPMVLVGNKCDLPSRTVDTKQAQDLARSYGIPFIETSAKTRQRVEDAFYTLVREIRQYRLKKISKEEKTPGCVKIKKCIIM
experimentDescription: Binding to KRAS by surface plasmon resonance (SPR), Single Cycle Kinetics
recordedConditions: SPR Single Cycle Kinetics, GDP-bound KRAS wild-type protein, 1:1 binding model; read-out: KRAS KD
Where a SMILES comes first, the peptide text is derived from it. Bridges are numbered along the chain shown (N, C = ends). [ ]: non-standard residue; d: D form. The star is where a group is joined. hPhe(3,5-F2-4-CF3) = N[C@@H](CCc1cc(F)c(C(F)(F)F)c(F)c1)C(=O)O; hPhe(3-Cl-4-CF3) = N[C@@H](CCc1ccc(C(F)(F)F)c(Cl)c1)C(=O)O; NPrPhe(4-CF3) = CCCN[C@@H](Cc1ccc(C(F)(F)F)cc1)C(=O)O; NMeGly(cPent) = CN[C@H](C(=O)O)C1CCCC1; αMeI = CC[C@H](C)[C@](C)(N)C(=O)O; NMeD = CN[C@@H](CC(=O)O)C(=O)O; NMeL = CN[C@@H](CC(C)C)C(=O)O; Morpholide = C1CN(*)CCO1; NMeA = CN[C@@H](C)C(=O)O; Piperidide = C1CCN(*)CC1; Ac5c = NC1(C(=O)O)CCCC1; Aze = O=C(O)[C@@H]1CCN1; Sar = CNCC(=O)O
readoutLabel: Kd (nM)

>>> observedmeasurement("CCCN1C(=O)CN(C)C(=O)CN(C)C(=O)[C@H]([C@@H](C)CC)NC(=O)[C@H](CC(C)C)N(C)C(=O)C[C@@H](C(=O)N2CCOCC2)N(C)C(=O)[C@H](C2CCCC2)N(C)C(=O)[C@](C)([C@@H](C)CC)NC(=O)[C@@H]2CCCN2C(=O)[C@H](CCc2cc(F)c(C(F)(F)F)c(F)c2)NC(=O)CN(C)C(=O)[C@@H]1Cc1ccc(C(F)(F)F)cc1 [PP0757] ([NMeL]I[Sar][Sar][NPrPhe(4-CF3)][Sar][hPhe(3,5-F2-4-CF3)]P[αMeI][NMeGly(cPent)][NMeD]-Morpholide; lactam N-11)")
4
>>> observedmeasurement("CCCN1C(=O)[C@@H]2CCN2C(=O)[C@H](C)N(C)C(=O)[C@H]([C@@H](C)CC)NC(=O)[C@H](CC(C)C)N(C)C(=O)C[C@@H](C(=O)N2CCCCC2)N(C)C(=O)[C@H](C2CCCC2)N(C)C(=O)C2(CCCC2)NC(=O)[C@@H]2CCCN2C(=O)[C@H](CCc2ccc(C(F)(F)F)c(Cl)c2)NC(=O)CN(C)C(=O)[C@@H]1Cc1ccc(C(F)(F)F)cc1 [PP0180] ([NMeL]I[NMeA][Aze][NPrPhe(4-CF3)][Sar][hPhe(3-Cl-4-CF3)]P[Ac5c][NMeGly(cPent)][NMeD]-Piperidide; lactam N-11)")
0.72

###

experimentalTarget: GDP-bound KRAS wild-type protein (Homo sapiens, UniProt P01116)
experimentDescription: Binding to KRAS by surface plasmon resonance (SPR), Single Cycle Kinetics
recordedConditions: SPR Single Cycle Kinetics, GDP-bound KRAS wild-type protein, 1:1 binding model; read-out: KRAS KD
Where a SMILES comes first, the peptide text is derived from it. Bridges are numbered along the chain shown (N, C = ends). [ ]: non-standard residue; d: D form. The star is where a group is joined. hPhe(3,5-F2-4-CF3) = N[C@@H](CCc1cc(F)c(C(F)(F)F)c(F)c1)C(=O)O; hPhe(3-Cl-4-CF3) = N[C@@H](CCc1ccc(C(F)(F)F)c(Cl)c1)C(=O)O; NPrPhe(4-CF3) = CCCN[C@@H](Cc1ccc(C(F)(F)F)cc1)C(=O)O; NMeGly(cPent) = CN[C@H](C(=O)O)C1CCCC1; Hyp = O=C(O)[C@@H]1C[C@@H](O)CN1; NMeD = CN[C@@H](CC(=O)O)C(=O)O; NMeL = CN[C@@H](CC(C)C)C(=O)O; αMeS = C[C@](N)(CO)C(=O)O; Morpholide = C1CN(*)CCO1; NMeA = CN[C@@H](C)C(=O)O; Aze = O=C(O)[C@@H]1CCN1; Ac4c = NC1(C(=O)O)CCC1; Sar = CNCC(=O)O; Allyl = C=CC*
Cut-off 1000 pM on Kd: below means T, at or above means F.

>>> classification("CCC[C@H]1C(=O)N[C@@H]([C@@H](C)CC)C(=O)N2CCC[C@H]2C(=O)N(C)[C@H]2C/C=C\\CCN(C2=O)[C@@H](Cc2ccc(C(F)F)cc2)C(=O)N(C)CC(=O)N[C@@H](CCc2ccc(Cl)c(Cl)c2)C(=O)N2C[C@H](OC(C)C)C[C@H]2C(=O)NC2(CC(C)(C)C2)C(=O)N(C)[C@@H](C(CC)CC)C(=O)N(C)[C@H](C(=O)N(C)C)CC(=O)N1C")
"F"
>>> classification("CCCN1C(=O)[C@@H]2CCN2C(=O)[C@H](C)N(C)C(=O)[C@H]([C@@H](C)CC)NC(=O)[C@H](CC(C)C)N(C)C(=O)C[C@@H](C(=O)N2CCOCC2)NC(=O)[C@H](C2CCCC2)N(C)C(=O)C2(CCC2)NC(=O)[C@@H]2C[C@@H](OCC)CN2C(=O)[C@H](CCc2ccc(C(F)(F)F)c(Cl)c2)NC(=O)CN(C)C(=O)[C@@H]1Cc1ccc(C(F)(F)F)cc1 [PP0348] ([NMeL]I[NMeA][Aze][NPrPhe(4-CF3)][Sar][hPhe(3-Cl-4-CF3)][Hyp](Et)[Ac4c][NMeGly(cPent)]D-Morpholide; lactam N-11)")
"T"
>>> classification("CC[C@H](C)[C@@H]1NC(=O)[C@@H](CC(C)C)N(C)C(=O)C[C@@H](C(=O)N(C)C)N(C)C(=O)[C@@H](C2CCCC2)N(C)C(=O)C2(CCCC2)NC(=O)[C@@H]2CCCN2C(=O)[C@H](CCc2ccc(C(F)(F)F)c(Cl)c2)NC(=O)CN(C)C(=O)[C@@H](Cc2ccc(C)cc2)N2CC/C=C\\CCN(CC2=O)C(=O)CN(C)C1=O")
"F"
>>> classification("C=CCOC[C@]1(C)NC(=O)[C@@H]2CCCN2C(=O)[C@H](CCc2cc(F)c(C(F)(F)F)c(F)c2)NC(=O)CN(C)C(=O)[C@H](Cc2ccc(C(F)(F)F)cc2)N(CCC)C(=O)CN(C)C(=O)CN(C)C(=O)[C@H]([C@@H](C)CC)NC(=O)[C@H](CC(C)C)N(C)C(=O)C[C@@H](C(=O)N(C)C)N(C)C(=O)[C@H](C2CCCC2)N(C)C1=O [PP0742] ([NMeL]I[Sar][Sar][NPrPhe(4-CF3)][Sar][hPhe(3,5-F2-4-CF3)]P[αMeS](Allyl)[NMeGly(cPent)][NMeD]-NMe2; lactam N-11)")
"T"
>>> classification("CC[C@H](C)[C@@H]1NC(=O)[C@H](C)N(C)C(=O)C[C@@H](C(=O)N2CCOCC2)N(C)C(=O)[C@H](C2CCCC2)N(C)C(=O)C2(CCC2)NC(=O)[C@@H]2CC(F)(F)CN2C(=O)[C@H](CCc2cc(F)c(C(F)(F)F)c(F)c2)NC(=O)CN(C)C(=O)[C@H](Cc2ccc(C(F)(F)F)cc2)N2CCCC[C@@H](C2=O)N(C)C(=O)CN(C)C1=O")
"T"
